Record form. Attribute: abundance fitness. Fill in for each entry.
B1: SH3 and PX domain-containing protein 2B, residues 155 to 209; numbered along this chain, A1X283 (parent)
chain: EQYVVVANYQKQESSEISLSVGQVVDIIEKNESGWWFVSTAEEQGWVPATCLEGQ

variants of: B1; test: abundance fitness (aPCA) (normalised: wild type 0, dead -1); higher = more abundant; growth selection in yeast, the domain comes from the species named; conditions: Homo sapiens
Answers are plain numbers.

Give measured abundance fitness for every item shown.
1. V24K
2. Q10W
3. P48G
4. E13V
5. W35L
6. E53Y

A:
1. 0.069
2. -0.334
3. -1
4. -0.065
5. -0.073
6. -0.252

Provide each entry's abundance fitness from the list below.
1. E13W
2. V21S

A:
1: -0.467; 2: -0.238
